# Target system: Neutrophil elastase (Homo sapiens) (UniProt P08246)
# Sequence (whole entry): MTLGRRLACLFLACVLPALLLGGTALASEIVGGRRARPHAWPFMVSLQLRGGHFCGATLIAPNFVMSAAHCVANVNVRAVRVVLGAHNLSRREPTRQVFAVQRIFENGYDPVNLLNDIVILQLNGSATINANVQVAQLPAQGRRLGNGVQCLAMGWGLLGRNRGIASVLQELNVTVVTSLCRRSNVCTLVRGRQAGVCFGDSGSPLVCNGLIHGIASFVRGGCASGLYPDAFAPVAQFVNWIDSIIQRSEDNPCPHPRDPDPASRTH
# Run description: Percent inhibition in elastase-induced lung haemorrhage, when the compound is dosed orally at 30 mg/kg 30 min before challenge by HLE (Human leukocyte elastase)
# Format: functional, organism-based
# Set-up: dose 30 mg/kg
Measured attribute: inhibition

>  <Compound>
CCC1(CC)C(=O)N(C(=O)NCc2ccc(-c3ccccc3)cc2)C1Oc1ccc(CC(=O)O)cc1 (centres undefined)

>  <Measured attribute>
inhibition

>  <Observed result>
19%

$$$$
>  <Compound>
CCC1(CC)C(=O)N(C(=O)NCc2ccc([N+](=O)[O-])cc2)C1Oc1ccc(C(=O)O)cc1 (centres undefined)

>  <Measured attribute>
inhibition

>  <Observed result>
22%

$$$$
>  <Compound>
CCC1(CC)C(=O)N(C(=O)NCc2ccc(F)cc2)C1Oc1ccc(C(=O)O)cc1 (centres undefined)

>  <Measured attribute>
inhibition

>  <Observed result>
4%

$$$$
>  <Compound>
CCC1(CC)C(=O)N(C(=O)NCc2ccc(OCc3ccccc3)cc2)C1Oc1ccc(C(=O)O)cc1 (centres undefined)

>  <Measured attribute>
inhibition

>  <Observed result>
-9%

$$$$
>  <Compound>
CCC1(CC)C(=O)N(C(=O)NCc2ccc(C)cc2C)C1Oc1ccc(C(=O)O)cc1 (centres undefined)

>  <Measured attribute>
inhibition

>  <Observed result>
45%

$$$$
>  <Compound>
CCC1(CC)C(=O)N(C(=O)NCc2ccc(Cl)cc2)C1Oc1ccc(C(=O)O)cc1 (centres undefined)

>  <Measured attribute>
inhibition

>  <Observed result>
29%

$$$$
>  <Compound>
CCC1(CC)C(=O)N(C(=O)NCc2ccc(C(C)=O)cc2)C1Oc1ccc(C(=O)O)cc1 (centres undefined)

>  <Measured attribute>
inhibition

>  <Observed result>
37%

$$$$
>  <Compound>
CCC1(CC)C(=O)N(C(=O)NCCCCCc2ccccc2)C1Oc1ccc(C(=O)O)cc1 (centres undefined)

>  <Measured attribute>
inhibition

>  <Observed result>
15%

$$$$
>  <Compound>
CCc1ccc(CNC(=O)N2C(=O)C(CC)(CC)C2Oc2ccc(C(=O)O)cc2)cc1 (centres undefined)

>  <Measured attribute>
inhibition

>  <Observed result>
46%

$$$$

====

Here, each record is paired with measured second order rate constant kobs/[I] data.
# Target system: Neutrophil elastase (Homo sapiens) (UniProt P08246)
# Run description: elastase inhibitory activity, evaluated for second order rate constant (time-dependent inhibition)
Measured attribute: second order rate constant kobs/[I] (M⁻¹ s⁻¹)

>  <Compound>
CCC1(CC)C(=O)N(C(=O)NCc2cccs2)C1Oc1ccc(C(=O)O)cc1 (centres undefined)

>  <Value unit>
M⁻¹ s⁻¹

>  <Observed result>
4900

$$$$
>  <Compound>
CCC1(CC)C(=O)N(C(=O)NCc2ccc(C)c(C)c2)C1Oc1ccc(C(=O)O)cc1 (centres undefined)

>  <Value unit>
M⁻¹ s⁻¹

>  <Observed result>
21000

$$$$
>  <Compound>
CCCCNC(=O)N1C(=O)C(CC)(CC)C1Oc1ccc(C(=O)O)cc1 (centres undefined)

>  <Value unit>
M⁻¹ s⁻¹

>  <Observed result>
800

$$$$
>  <Compound>
CCC1(CC)C(=O)N(C(=O)NCc2ccsc2)C1Oc1ccc(C(=O)O)cc1 (centres undefined)

>  <Value unit>
M⁻¹ s⁻¹

>  <Observed result>
1300

$$$$
>  <Compound>
CCC1(CC)C(=O)N(C(=O)NCc2ccc(N(C)C)cc2)C1Oc1ccc(C(=O)O)cc1 (centres undefined)

>  <Value unit>
M⁻¹ s⁻¹

>  <Observed result>
10000

$$$$
>  <Compound>
CCC1(CC)C(=O)N(C(=O)NCCCc2ccccc2)C1Oc1ccc(C(=O)O)cc1 (centres undefined)

>  <Value unit>
M⁻¹ s⁻¹

>  <Observed result>
4500

$$$$
>  <Compound>
CCC1(CC)C(=O)N(C(=O)NCCCCOc2ccccc2)C1Oc1ccc(C(=O)O)cc1 (centres undefined)

>  <Value unit>
M⁻¹ s⁻¹

>  <Observed result>
3400

$$$$
>  <Compound>
CCC1(CC)C(=O)N(C(=O)NCc2ccccc2)C1Oc1ccc(C(=O)O)cc1 (centres undefined)

>  <Value unit>
M⁻¹ s⁻¹

>  <Observed result>
1500

$$$$
>  <Compound>
CCC1(CC)C(=O)N(C(=O)NCCCC(=O)c2ccccc2)C1Oc1ccc(C(=O)O)cc1 (centres undefined)

>  <Value unit>
M⁻¹ s⁻¹

>  <Observed result>
2000

$$$$
>  <Compound>
CCC1(CC)C(=O)N(C(=O)NCCCCCCc2ccccc2)C1Oc1ccc(C(=O)O)cc1 (centres undefined)

>  <Value unit>
M⁻¹ s⁻¹

>  <Observed result>
5000

$$$$
>  <Compound>
CCC1(CC)C(=O)N(C(=O)NCc2cccc(C)c2)C1Oc1ccc(C(=O)O)cc1 (centres undefined)

>  <Value unit>
M⁻¹ s⁻¹

>  <Observed result>
7000

$$$$
>  <Compound>
CCC1(CC)C(=O)N(C(=O)NCc2ccccc2O)C1Oc1ccc(C(=O)O)cc1 (centres undefined)

>  <Value unit>
M⁻¹ s⁻¹

>  <Observed result>
1500

$$$$
>  <Compound>
CCC1(CC)C(=O)N(C(=O)NCc2ccc(C)cc2C)C1Oc1ccc(C(=O)O)cc1 (centres undefined)

>  <Value unit>
M⁻¹ s⁻¹

>  <Observed result>
1500

$$$$
>  <Compound>
CCC1(CC)C(=O)N(C(=O)NCc2ccc(OC)cc2)C1Oc1ccc(C(=O)O)cc1 (centres undefined)

>  <Value unit>
M⁻¹ s⁻¹

>  <Observed result>
5200

$$$$
>  <Compound>
CCC1(CC)C(=O)N(C(=O)NCc2ccc(-c3ccccc3)cc2)C1Oc1ccc(C(=O)O)cc1 (centres undefined)

>  <Value unit>
M⁻¹ s⁻¹

>  <Observed result>
23200

$$$$
>  <Compound>
CCC1(CC)C(=O)N(C(=O)NCc2cc(C)cc(C)c2)C1Oc1ccc(C(=O)O)cc1 (centres undefined)

>  <Value unit>
M⁻¹ s⁻¹

>  <Observed result>
14700

$$$$
>  <Compound>
CCC1(CC)C(=O)N(C(=O)NCCCCCc2ccccc2)C1Oc1ccc(C(=O)O)cc1 (centres undefined)

>  <Value unit>
M⁻¹ s⁻¹

>  <Observed result>
4800

$$$$
>  <Compound>
CCC1(CC)C(=O)N(C(=O)NCc2ccco2)C1Oc1ccc(C(=O)O)cc1 (centres undefined)

>  <Value unit>
M⁻¹ s⁻¹

>  <Observed result>
5200

$$$$
>  <Compound>
CCC1(CC)C(=O)N(C(=O)NCc2ccc(C(N)=O)cc2)C1Oc1ccc(C(=O)O)cc1 (centres undefined)

>  <Value unit>
M⁻¹ s⁻¹

>  <Observed result>
4300

$$$$
